# Test details: Single dose PK in healthy subjects (Cohorts 1, 2, S1 and S2), plasma
# Format: in vivo, human
# Study conditions: human, plasma, iv, 28 mg, 28 mg single IV infusion, healthy subjects; read-out: CL Median (converted)
Readout type: clearance

{"Molecule": "COC(=O)N1CCC[C@H](NS(C)(=O)=O)[C@@H]1CO[C@H]1CC[C@@H](c2ccccc2)CC1 [Compound A]", "Observed measurement": "850 mL/min"}

---

# Test details: Single dose PK in healthy subjects (Cohorts 1, 2, S1 and S2), plasma
# Type: in vivo, human
# Study conditions: human, plasma, iv, 240 mg, 240 mg single IV infusion; 6 hr After End of Infusions; read-out: Plasma Concentration of Cmpd A, Q1
Readout type: concentration at 6 h after end of infusion (ng/mL)

{"Structure notation": "COC(=O)N1CCC[C@H](NS(C)(=O)=O)[C@@H]1CO[C@H]1CC[C@@H](c2ccccc2)CC1", "Observed measurement": 23}

---

# Test details: Single dose PK in healthy subjects (Cohorts 1, 2, S1 and S2), plasma
# Type: in vivo, human
# Study conditions: human, plasma, iv, 240 mg, 240 mg single IV infusion, healthy subjects; read-out: Ceoi Geo Mean

{"Molecule": "COC(=O)N1CCC[C@H](NS(C)(=O)=O)[C@@H]1CO[C@H]1CC[C@@H](c2ccccc2)CC1 [Compound A]", "concentration at 9 h / ng/mL": 493}

---

# Test details: Single dose PK in healthy subjects (Cohorts 1, 2, S1 and S2), plasma
# Assay type: in vivo, human
# Study conditions: human, plasma, intravenous, 180 mg; 6 hr; read-out: Plasma concentration, Median

{"Compound": "COC(=O)N1CCC[C@H](NS(C)(=O)=O)[C@@H]1CO[C@H]1CC[C@@H](c2ccccc2)CC1 [Compound A]", "concentration at 6 hr (ng/mL)": 292}

---

# Test details: Single dose PK in healthy subjects (Cohorts 1, 2, S1 and S2), plasma
# Assay type: in vivo, human
# Study conditions: human, plasma, intravenous, 180 mg; 1.5 hr; read-out: Plasma concentration, Median

{"Compound": "COC(=O)N1CCC[C@H](NS(C)(=O)=O)[C@@H]1CO[C@H]1CC[C@@H](c2ccccc2)CC1 [Compound A]", "concentration at 1.5 hr": "242 ng/mL"}

---

# Test details: Single dose PK in healthy subjects (Cohorts 1, 2, S1 and S2), plasma
# Type: in vivo, human
# Study conditions: human, plasma, iv, 240 mg, 240 mg single IV infusion; 4 hr After End of Infusions; read-out: Plasma Concentration of Cmpd A, Maximum
Readout type: concentration at 4 h after end of infusion (ng/mL)

{"Structure notation": "COC(=O)N1CCC[C@H](NS(C)(=O)=O)[C@@H]1CO[C@H]1CC[C@@H](c2ccccc2)CC1", "Unit name": "ng/mL", "Observed measurement": 65.1}

---

# Test details: Single dose PK in healthy subjects (Cohorts 1, 2, S1 and S2), plasma
# Type: in vivo, human
# Study conditions: human, plasma, iv, 180 mg, 180 mg single IV infusion, healthy subjects; read-out: Cmax Mean

{"Compound": "COC(=O)N1CCC[C@H](NS(C)(=O)=O)[C@@H]1CO[C@H]1CC[C@@H](c2ccccc2)CC1 [Compound A]", "Unit name": "ng/mL", "Cmax": 345}

---

# Test details: Single dose PK in healthy subjects (Cohorts 1, 2, S1 and S2), plasma
# Assay type: in vivo, human
# Study conditions: human, plasma, intravenous, 180 mg; 8 hr; read-out: Plasma concentration, Maximum
Readout type: concentration at 8 h (ng/mL)

{"Molecule": "COC(=O)N1CCC[C@H](NS(C)(=O)=O)[C@@H]1CO[C@H]1CC[C@@H](c2ccccc2)CC1 [Compound A]", "Observed measurement": 337}

---

# Test details: Single dose PK in patients with narcolepsy (Cohorts 5, 6 and 7), plasma
# Type: in vivo, human
# Study conditions: human, plasma, iv, 44.8 mg; 4 hr; NT1, single 9 h IV infusion; read-out: Plasma concentration, Mean
Readout type: concentration at 4 h (ng/mL)

{"Structure notation": "COC(=O)N1CCC[C@H](NS(C)(=O)=O)[C@@H]1CO[C@H]1CC[C@@H](c2ccccc2)CC1", "Readout type": "concentration at 4 h", "Unit name": "ng/mL", "Observed measurement": 96}

---

# Test details: Single dose PK in healthy subjects (Cohorts 1, 2, S1 and S2), plasma
# Assay type: in vivo, human
# Study conditions: human, plasma, intravenous, 180 mg; 2 hr; read-out: Plasma concentration, Q1

{"Structure notation": "COC(=O)N1CCC[C@H](NS(C)(=O)=O)[C@@H]1CO[C@H]1CC[C@@H](c2ccccc2)CC1", "concentration at 2 hr [µg/mL]": 0.271}

---

# Test details: Plasma concentrations in healthy subjects (Cohort 4)
# Assay type: in vivo
# Study conditions: human, intravenous, 112 mg, 9 hr, Median
Readout type: concentration at 9 h (ng/mL)

{"Compound": "COC(=O)N1CCC[C@H](NS(C)(=O)=O)[C@@H]1CO[C@H]1CC[C@@H](c2ccccc2)CC1 [Compound A]", "Readout type": "concentration at 9 h", "Observed measurement": 182}

---

# Test details: Single dose PK in healthy subjects (Cohorts 1, 2, S1 and S2), plasma
# Assay type: in vivo, human
# Study conditions: human, plasma, iv, 180 mg, 180 mg single IV infusion, healthy subjects; read-out: AUCinf Median

{"Structure notation": "COC(=O)N1CCC[C@H](NS(C)(=O)=O)[C@@H]1CO[C@H]1CC[C@@H](c2ccccc2)CC1", "AUC(0-inf) / ng·h/mL": 3050}

---

# Test details: Single dose PK in healthy subjects (Cohorts 1, 2, S1 and S2), plasma
# Format: in vivo, human
# Study conditions: human, plasma, iv, 56 mg, 56 mg single IV infusion, healthy subjects; read-out: Vz Mean
# Source text: […]

{"Compound": "COC(=O)N1CCC[C@H](NS(C)(=O)=O)[C@@H]1CO[C@H]1CC[C@@H](c2ccccc2)CC1 [Compound A]", "Unit name": "L", "Vd": 291}

---

# Test details: Single dose PK in patients with narcolepsy (Cohorts 5, 6 and 7), plasma
# Format: in vivo, human
# Study conditions: human, plasma, intravenous, 11.2 mg, Cmpd A 11.2 mg; Mean; Cohort 5, 6, 7; read-out: AUC24

{"Compound": "COC(=O)N1CCC[C@H](NS(C)(=O)=O)[C@@H]1CO[C@H]1CC[C@@H](c2ccccc2)CC1 [Compound A]", "Unit name": "ng·h/mL", "AUC": 199}

---

# Test details: Single dose PK in healthy subjects (Cohorts 1, 2, S1 and S2), plasma
# Assay type: in vivo, human
# Study conditions: human, plasma, intravenous, 28 mg; 2 hr; read-out: Plasma concentration, Maximum

{"Structure notation": "COC(=O)N1CCC[C@H](NS(C)(=O)=O)[C@@H]1CO[C@H]1CC[C@@H](c2ccccc2)CC1", "Unit name": "ng/mL", "concentration at 2 h": 58.4}

---

# Test details: Single dose PK in healthy subjects (Cohorts 1, 2, S1 and S2), plasma
# Assay type: in vivo, human
# Study conditions: human, plasma, intravenous, 112 mg; 2 hr; read-out: Plasma concentration, Maximum
Readout type: concentration at 2 h

{"Compound": "COC(=O)N1CCC[C@H](NS(C)(=O)=O)[C@@H]1CO[C@H]1CC[C@@H](c2ccccc2)CC1 [Compound A]", "Observed measurement": "223 ng/mL"}

---

# Test details: Single dose PK in patients with narcolepsy (Cohorts 5, 6 and 7), plasma
# Type: in vivo, human
# Study conditions: human, plasma, intravenous, 5 mg, Cmpd A 5 mg; Median; Cohort 5, 6, 7

{"Structure notation": "COC(=O)N1CCC[C@H](NS(C)(=O)=O)[C@@H]1CO[C@H]1CC[C@@H](c2ccccc2)CC1", "AUC(0-t), ng·h/mL": 89.2}

---

# Test details: Single dose PK in healthy subjects (Cohorts 1, 2, S1 and S2), plasma
# Assay type: in vivo, human
# Study conditions: human, plasma, intravenous, 134.4 mg; 9 hr; read-out: Plasma concentration, Mean
Readout type: concentration at 9 h (ng/mL)

{"Compound": "COC(=O)N1CCC[C@H](NS(C)(=O)=O)[C@@H]1CO[C@H]1CC[C@@H](c2ccccc2)CC1 [Compound A]", "Unit name": "ng/mL", "Observed measurement": 292}

---

# Test details: Single dose PK in healthy subjects (Cohorts 1, 2, S1 and S2), plasma
# Assay type: in vivo, human
# Study conditions: human, plasma, iv, 180 mg, 180 mg single IV infusion, healthy subjects; read-out: Cmax Geo Mean
Readout type: Cmax (ng/mL)

{"Structure notation": "COC(=O)N1CCC[C@H](NS(C)(=O)=O)[C@@H]1CO[C@H]1CC[C@@H](c2ccccc2)CC1", "Readout type": "Cmax", "Observed measurement": 344}
